System: MALME-3M melanoma
Experiment: NCI-60 one-dose screen, 48 h (100 = growth as untreated, 0 = no growth, -100 = all killed)
Conditions: 10 µM unless noted
Protocol: Cells are grown in 96 well plates and exposed to the test compound for 48 hours. Compounds are tested at a single concentration, which is 10^-5 M for most compounds. The reported endpoint is percent growth (GI% or GIPRCNT), where numbers from 0 - 100% represent growth inhibition, and numbers from -100% - 0 represent cell death. For example, a value of 40 represents 60% growth inhibition. A value of 0 means no net growth occurred over the course of the experiment. […]
The panel holds about 83,000 compounds, 20% with a hit somewhere; the sample as a whole holds those more often.
Outcome measure: growth (%)
Only the number, expressed in %, is required.

Q: Report growth for N#CC1(C#N)C2=C(CCCC2)NC(c2c(F)cccc2Cl)C1(C#N)C#N (stereo not given)
Result: 74.7

Q: Report growth for C=C1C(=O)O[C@H]2[C@H]1CCC(/C=N/c1ncc(Br)cc1N)=C\CC[C@@]1(C)O[C@@H]21
Result: -9.18

Q: Report growth for COc1ccc(-c2nnc(N3CCN(C(=O)CN4CCN(c5ccccc5)CC4)CC3)nc2-c2ccc(OC)cc2)cc1
Result: 34.2

Q: Report growth for Fc1ccc(N/N=C/c2ccc(-n3cccn3)cc2)cc1
Result: 106

Q: Report growth for CNC(=O)c1cc(Oc2ccc3c(c2)sc2nc(-c4ccc(NC(C)=O)cc4)cn23)ccn1
Result: 71.8

###

Test system: M14 melanoma
Assay: NCI-60 one-dose screen, 48 h
Conditions: 10 µM unless noted
Experimental: Growth inhibition of the M14 human tumor cell line is measured as a screen for anti-cancer activity. Cells are grown in 96 well plates and exposed to the test compound for 48 hours. Compounds are tested at a single concentration, which is 10^-5 M for most compounds. The reported endpoint is percent growth (GI% or GIPRCNT), where numbers from 0 - 100% represent growth inhibition, and numbers from -100% - 0 represent cell death. For example, a value of 40 represents 60% growth inhibition. […]
Compounds without any hit were thinned out: in the full panel of roughly 83,000, 20% have a hit. The source made the active and inactive calls. How the source made its calls: active means growth percent below 10; inactive means the rest.
Answer with one of the outcomes t (active), f (inactive)

Q: For this molecule, state the assay outcome: COc1cc(-c2csc(NC(=O)Nc3ccc(Cl)cc3)n2)cc(OC)c1OC
Result: f

Q: For this molecule, state the assay outcome: CCOC(=O)C1=C(C)n2nc(CC#N)c(C#N)c2NC1c1ccc(CC)cc1 (stereo not given)
Result: f

Q: For this molecule, state the assay outcome: C=C(C)[C@@H]1CC[C@]2(C(=O)OCCOCCOCC[P+](c3ccccc3)(c3ccccc3)c3ccccc3)CC[C@]3(C)[C@H](CC[C@@H]4[C@@]5(C)CC[C@H](OC(=O)C(Cl)Cl)C(C)(C)[C@@H]5CC[C@]43C)[C@@H]12
Result: t

Q: For this molecule, state the assay outcome: Cc1cccc(C)c1NCc1nnc(-c2ccc(O)cc2)o1
Result: f

Q: For this molecule, state the assay outcome: CCOC(=O)C(=Cc1c(-c2ccccc2)[nH]c2ccccc12)C(=O)OCC
Result: f

###

system: NCI-H460 lung; experiment: NCI-60 one-dose screen, 48 h (100 = growth as untreated, 0 = no growth, -100 = all killed); conditions: 10 µM unless noted
Compounds without any hit were thinned out: in the full panel of roughly 83,000, 20% have a hit.
Please provide measured growth for the entries that follow.
Only the number, expressed in %, is required.

Q: Report growth for CCCCn1c(=O)c(/C=C/C(=O)/C=C/c2ccc(O)c(OC)c2)cc2ccc(Cl)cc21
Result: 14.5

Q: Report growth for CC(=O)OCC1OC(OC2C(COC(C)=O)OC(OCCC[S-])C(OC(C)=O)C2OC(C)=O)C(OC(C)=O)C(OC(C)=O)C1OC(C)=O.[Au+].c1ccc(CN2[CH-]N(Cc3ccccc3)C(c3ccccc3)=C2c2ccccc2)cc1 (stereo not given)
Result: 15

Q: Report growth for Cc1nnc(/N=C2\NC(=O)/C(=C/c3ccc(N(C)C)cc3)S2)s1
Result: 33.2

Q: Report growth for C#C[C@@]1(O)[C@@H](CO)O[C@@H](n2cc(Cl)c3c(N)ccnc32)[C@@H]1O
Result: 25.1

Q: Report growth for Nc1c(C(=O)c2ccccc2)sc2nc(-c3cc4ccccc4o3)cc(-c3ccc(Cl)cc3)c12
Result: 103

###

test system: OVCAR-3 ovarian; assay: NCI-60 one-dose screen, 48 h (100 = growth as untreated, 0 = no growth, -100 = all killed); settings: 10 µM unless noted
Compounds without any hit were thinned out: in the full panel of roughly 83,000, 20% have a hit.
Please provide measured growth for the entries that follow.
Only the number, expressed in %, is required.

Q: Report growth for COc1ccc(C(=O)c2cc(OC)c(OC)c(OC)c2)cc1OC(=O)CCl
Result: 0.464

Q: Report growth for COc1ccc2nc(-c3ccc(OC)c(OC)c3)cc(-c3nnc(SCC(=O)Nc4ccc(C(C)=O)cc4)o3)c2c1
Result: 111

Q: Report growth for CCOC(=O)NC(Cc1ccccc1)c1ccccc1 (centres undefined)
Result: 119

Q: Report growth for Oc1c(CCl)cc(Cl)cc1Cc1cc(Cl)cc(Cc2cc(Cl)cc(CCl)c2O)c1O
Result: 19.2

###

tested on: HCT-15 colon; test: NCI-60 one-dose screen, 48 h (100 = growth as untreated, 0 = no growth, -100 = all killed); conditions: 10 µM unless noted
Compounds without any hit were thinned out: in the full panel of roughly 83,000, 20% have a hit.
Please provide measured growth for the entries that follow.
Only the number, expressed in %, is required.

Q: Report growth for Fc1ccc(N/N=C/c2ccc(-n3cccn3)cc2)cc1
Result: 83

Q: Report growth for Cc1nc2sc(C(=O)Nc3ccccc3Cl)c(N)c2cc1C(C)O (centres undefined)
Result: 61.4

Q: Report growth for [2H]c1nc(Nc2ncc3cc(C(=O)N(C)C)n(C4CCCC4)c3n2)c([2H])c([2H])c1N1C([2H])([2H])C([2H])([2H])NC([2H])([2H])C1([2H])[2H]
Result: 79.9

Q: Report growth for S=C(Nc1ccccc1)c1ccccn1
Result: 96.8

Q: Report growth for C=C(C)[C@@H]1CC[C@]2(C(=O)N3CCN(C)CC3)CC[C@]3(C)[C@H](CC[C@@H]4[C@@]5(C)C/C(=C/c6ccco6)C(=O)C(C)(C)[C@@H]5CC[C@]43C)[C@@H]12
Result: 46.6

Q: Report growth for COc1cc(C(=O)N2CCN(c3ccccc3OC)CC2)c(NC(=O)c2cnccn2)cc1OCc1ccccc1
Result: 81.9

Q: Report growth for N#Cc1c(-c2ccc(F)cc2)nc(N=Nc2c(O)[nH]c3ccc(Cl)cc23)nc1N1CCOCC1
Result: 71.7

Q: Report growth for C(=C\c1cn(-c2ccccc2)nc1-c1ccccc1)/c1nnc(-c2c[nH]c3ccccc23)o1
Result: 69

Q: Report growth for CCOCc1cc(C(C)(C)C)ccc1O
Result: 104

###

tested on: OVCAR-4 ovarian; experiment: NCI-60 one-dose screen, 48 h (100 = growth as untreated, 0 = no growth, -100 = all killed); settings: 10 µM unless noted
About 83,000 compounds went through this panel and 20% of them were active in at least one assay; those are over-represented in the sample as a whole.
Label Criterion not met if growth falls below 50%; label Criterion met in every other case.

Q: Test whether the compound CCCS(=O)(=O)Nc1ccc(F)c(C(=O)c2c[nH]c3ncc(-c4ccc(OCCCC5CCCCN5)nc4)cc23)c1F (centres undefined) records growth of 50% or higher.
Result: Criterion met

Q: Test whether the compound Cc1cccc2nc3c(n12)C(=O)C(=O)c1ccccc1-3 records growth of 50% or higher.
Result: Criterion met

Q: Test whether the compound c1ccc(-c2n(Cc3ccc4ccccc4n3)cc[n+]2Cc2ccc3ccccc3c2)cc1 records growth of 50% or higher.
Result: Criterion not met

Q: Test whether the compound Cc1c(Cl)cccc1NC(=O)c1sc2nc3c(cc2c1N)COCC3 records growth of 50% or higher.
Result: Criterion met

Q: Test whether the compound N#Cc1c(-c2ccc(F)cc2)nc(N/N=C/c2c[nH]c3ccccc23)nc1N1CCOCC1 records growth of 50% or higher.
Result: Criterion met

Q: Test whether the compound CCN(CC)CC#CCOC(=O)[C@]1(C)CCC[C@]2(C)[C@H]3C[C@H]4C(C(C)C)=C[C@]3(CC[C@H]21)[C@@H]1C(=O)CCC(=O)[C@@H]14 records growth of 50% or higher.
Result: Criterion not met

Q: Test whether the compound COc1ccc(C(=S)c2cc(OC)c(OC)c(OC)c2)cc1OC(=O)CCl records growth of 50% or higher.
Result: Criterion met

Q: Test whether the compound O=C(CCCCCCCCC(=O)Nc1cccc(C2=NCCN2)c1)Nc1cccc(C2=NCCN2)c1 records growth of 50% or higher.
Result: Criterion met

Q: Test whether the compound N#Cc1ccc(Oc2ccc3ccc(=O)oc3c2)cc1 records growth of 50% or higher.
Result: Criterion met

Q: Test whether the compound CCCCCCN1C(=O)CN=C1Nc1ccc2cc3ccc(NC4=NCC(=O)N4CCCCCC)cc3nc2c1 records growth of 50% or higher.
Result: Criterion met

Q: Test whether the compound Cc1cc(C)c2nc(Nc3nc(C)c(C)c(=O)[nH]3)nc(C)c2c1 records growth of 50% or higher.
Result: Criterion not met

Q: Test whether the compound CCCNc1nc(C)[nH]c(=O)c1S records growth of 50% or higher.
Result: Criterion met

Q: Test whether the compound Cc1c(Cl)cccc1NC(=O)c1sc2nc3c(cc2c1N)CN(Cc1ccccc1)CC3 records growth of 50% or higher.
Result: Criterion met

Q: Test whether the compound C=C1C(=O)O[C@H]2[C@H]1CC/C(COC(=O)CCCCCCC(=O)OC/C1=C/CC[C@@]3(C)O[C@H]3[C@H]3OC(=O)C(=C)[C@@H]3CC1)=C\CC[C@@]1(C)O[C@@H]21 records growth of 50% or higher.
Result: Criterion not met

Q: Test whether the compound C#C[C@@]1(O)[C@@H](CO)O[C@@H](n2cc(Cl)c3c(N)ncnc32)[C@@H]1O records growth of 50% or higher.
Result: Criterion not met

Q: Test whether the compound CC(=O)Oc1c2c(nc3c1c1ccccc1n3Cc1ccccc1)-c1ccccc1C2 records growth of 50% or higher.
Result: Criterion met

Q: Test whether the compound NC(=N\N=C\c1ccccc1O)/C(N)=N/N=C/c1ccccc1O records growth of 50% or higher.
Result: Criterion not met

Q: Test whether the compound O=C(/C(=C\c1c(-c2ccccc2)[nH]c2ccccc12)S(=O)(=O)c1ccccc1)c1ccccc1 records growth of 50% or higher.
Result: Criterion not met

Q: Test whether the compound Nc1ccc(C2=NN(C(=O)c3cc(-c4ccc(Cl)cc4)nc4ccccc34)C(c3ccccc3)C2)cc1 (centres undefined) records growth of 50% or higher.
Result: Criterion met

Q: Test whether the compound O=C1Nc2ccc(Cl)cc2/C1=N/c1nc(-c2ccc(F)cc2)cs1 records growth of 50% or higher.
Result: Criterion not met

Q: Test whether the compound Clc1ccc2c(NCCCNC3CCCCC3)ccnc2c1 records growth of 50% or higher.
Result: Criterion met

Q: Test whether the compound CCOC(=O)c1c(C)nc2c(c1N)/C(=C/c1ccccn1)C(=O)N2Cc1ccccc1 records growth of 50% or higher.
Result: Criterion not met

Q: Test whether the compound Cn1c2ccccc2c2c(OC(=O)c3ccccc3)c3c(nc21)-c1ccccc1C3 records growth of 50% or higher.
Result: Criterion met

Q: Test whether the compound CN(C)CSc1nc2ccccc2s1 records growth of 50% or higher.
Result: Criterion met

Q: Test whether the compound Nc1cc(N)nc(SCC(=O)O)n1 records growth of 50% or higher.
Result: Criterion met

Q: Test whether the compound COc1ccc2nc(-c3ccc(OC)c(OC)c3)cc(-c3nnc(SCC(=O)Nc4ccc(/C(C)=N\O)cc4)n3-c3ccccc3)c2c1 records growth of 50% or higher.
Result: Criterion met

Q: Test whether the compound C#C[C@@]1(O)[C@@H](CO)O[C@@H](n2cc(Cl)c3c(N)ccnc32)[C@@H]1O records growth of 50% or higher.
Result: Criterion met

Q: Test whether the compound Nc1c(C(=O)Nc2ccccc2)sc2nc3c(cc12)CN(C(=O)OCc1ccccc1)CC3 records growth of 50% or higher.
Result: Criterion met

Q: Test whether the compound COc1ccc(OCC(=O)OC(C)C)cc1 records growth of 50% or higher.
Result: Criterion met

Q: Test whether the compound CC1(C)[C@@H](O)CC[C@]2(C)[C@H]3CC[C@@H]4[C@H]5[C@H](c6cn(-c7ccccc7)nn6)CC[C@]5(CO)CC[C@@]4(C)[C@]3(C)CC[C@@H]12 records growth of 50% or higher.
Result: Criterion met

Q: Test whether the compound Cc1ccn2c3c(c(C(=O)O)c2c1)C(=O)c1ccccc1C3=O records growth of 50% or higher.
Result: Criterion met

Q: Test whether the compound Cc1c(C(=O)Nc2nc3ccccc3[nH]2)cnn1-c1ccccn1 records growth of 50% or higher.
Result: Criterion met

Q: Test whether the compound CCCCc1nc(Cl)c(C2CC(c3ccc(Cl)cc3)=NN2c2cc(Cl)cc(Cl)c2)[nH]1 (centres undefined) records growth of 50% or higher.
Result: Criterion met

Q: Test whether the compound CSc1cccc(NC(=O)Nc2nc3c(C)cccc3s2)c1 records growth of 50% or higher.
Result: Criterion met

Q: Test whether the compound COc1ccc(-c2cc(-c3nnc(SCC(=O)Nc4ccc(/C(C)=N\O)cc4)o3)c3ccccc3n2)cc1 records growth of 50% or higher.
Result: Criterion met

Reference source: PubChem BioAssay (NCI)
